The values you see were collected from patent US20240300943A1.

Assay Remarks: Hygroscopicity evaluation
Format: physicochemical
Experimental Setup: Initial
Consider the following compounds; for each one, report its Total related material.
Lab book: enter the figure in %, no units written.

Exam item: Give recorded Total related material. C[C@@H]1CN(C(=O)CC#N)CC=C1c1cc(NC(=O)C2CC2)nc2[nH]ccc12 [Example 1]
Marked response: 0.66

Exam item: Specify Total related material for C[C@@H]1CN(C(=O)CC#N)CC=C1c1cc(NC(=O)C2CC2)nc2[nH]ccc12 [Example 3] and stop.
Marked response: 0.37

Exam item: Return the recorded Total related material value; entry: C[C@@H]1CN(C(=O)CC#N)CC=C1c1cc(NC(=O)C2CC2)nc2[nH]ccc12 [Example 2]
Marked response: 0.56

Exam item: Tell me measured Total related material for C[C@@H]1CN(C(=O)CC#N)CC=C1c1cc(NC(=O)C2CC2)nc2[nH]ccc12 [Example 4] please.
Marked response: 1.13

* * *

Assay Remarks: Hygroscopicity evaluation
Type: physicochemical
Experimental Setup: relative humidity 93%, 4 W; in %
Assay Endpoint: Individual related material
Response field accepts a number only; no unit should be typed.

Exam item: Write down Individual related material measured for item C[C@@H]1CN(C(=O)CC#N)CC=C1c1cc(NC(=O)C2CC2)nc2[nH]ccc12 [Example 3]
Marked response: 0.07

Exam item: Look up and state reported Individual related material for C[C@@H]1CN(C(=O)CC#N)CC=C1c1cc(NC(=O)C2CC2)nc2[nH]ccc12 [Example 2]
Marked response: 0.10

Exam item: Read off the recorded Individual related material for C[C@@H]1CN(C(=O)CC#N)CC=C1c1cc(NC(=O)C2CC2)nc2[nH]ccc12 [Example 4]
Marked response: 0.17

Exam item: Using known records, supply Individual related material for C[C@@H]1CN(C(=O)CC#N)CC=C1c1cc(NC(=O)C2CC2)nc2[nH]ccc12 [Example 1]
Marked response: 0.13

* * *

Assay Remarks: Physical stability evaluation under stress conditions
Type: physicochemical
Experimental Setup: S4W: 4 weeks at 60° C./80% RH
Assay Endpoint: C.I quantitative (%)
Report the figure in % without appending any unit label.

Exam item: # return recorded C.I quantitative for entry C[C@@H]1CN(C(=O)CC#N)CC=C1c1cc(NC(=O)C2CC2)nc2[nH]ccc12 [Example 1]
Marked response: 9.1

Exam item: Hello, please tell me recorded C.I quantitative for this one: C[C@@H]1CN(C(=O)CC#N)CC=C1c1cc(NC(=O)C2CC2)nc2[nH]ccc12 [Example 2]
Marked response: 17.8

Exam item: Entry C[C@@H]1CN(C(=O)CC#N)CC=C1c1cc(NC(=O)C2CC2)nc2[nH]ccc12 [Example 4] needs its C.I quantitative filled in; supply it.
Marked response: 40.6

Exam item: Query C.I quantitative for C[C@@H]1CN(C(=O)CC#N)CC=C1c1cc(NC(=O)C2CC2)nc2[nH]ccc12 [Example 3]
Marked response: 23.8

* * *

Assay Remarks: Hygroscopicity evaluation
Type: physicochemical
Experimental Setup: Initial; in %
Could you please report measured Individual related material for the items listed next?
The reply should be a number, written without any unit.

Exam item: Provide measured Individual related material value, entry: C[C@@H]1CN(C(=O)CC#N)CC=C1c1cc(NC(=O)C2CC2)nc2[nH]ccc12 [Example 3]
Marked response: 0.07

Exam item: Output measured Individual related material for this item: C[C@@H]1CN(C(=O)CC#N)CC=C1c1cc(NC(=O)C2CC2)nc2[nH]ccc12 [Example 1]
Marked response: 0.13

Exam item: Assign Individual related material to the following record: C[C@@H]1CN(C(=O)CC#N)CC=C1c1cc(NC(=O)C2CC2)nc2[nH]ccc12 [Example 4]
Marked response: 0.13

Exam item: Quote Individual related material reported for C[C@@H]1CN(C(=O)CC#N)CC=C1c1cc(NC(=O)C2CC2)nc2[nH]ccc12 [Example 2] please.
Marked response: 0.12

* * *

Consider the following compounds; for each one, report its Individual related material.
Assay Remarks: Photostability evaluation
Type: physicochemical
Experimental Setup: Solid, UV (200 W-h/m2)
Give just the number in %; leave the unit off.

Exam item: Hello, please tell me recorded Individual related material for this one: C[C@@H]1CN(C(=O)CC#N)CC=C1c1cc(NC(=O)C2CC2)nc2[nH]ccc12 [Example 3]
Marked response: 0.1

Exam item: State its Individual related material: C[C@@H]1CN(C(=O)CC#N)CC=C1c1cc(NC(=O)C2CC2)nc2[nH]ccc12 [Example 4]
Marked response: 0.13

Exam item: Determine its reported Individual related material: C[C@@H]1CN(C(=O)CC#N)CC=C1c1cc(NC(=O)C2CC2)nc2[nH]ccc12 [Example 1]
Marked response: 0.36

Exam item: Kindly indicate its recorded Individual related material. Item: C[C@@H]1CN(C(=O)CC#N)CC=C1c1cc(NC(=O)C2CC2)nc2[nH]ccc12 [Example 5]
Marked response: 1

Exam item: Tell me measured Individual related material for C[C@@H]1CN(C(=O)CC#N)CC=C1c1cc(NC(=O)C2CC2)nc2[nH]ccc12 [Example 2] please.
Marked response: 0.11

* * *

Assay Remarks: Hygroscopicity evaluation
Assay type: physicochemical
Experimental Setup: relative humidity 33%, 4 W
Assign Total related material to each entry below.
Provide only the numeric value, understood in %.

Exam item: Recall and state the measured Total related material for C[C@@H]1CN(C(=O)CC#N)CC=C1c1cc(NC(=O)C2CC2)nc2[nH]ccc12 [Example 2] .
Marked response: 0.55

Exam item: In one line, give reported Total related material of the entry C[C@@H]1CN(C(=O)CC#N)CC=C1c1cc(NC(=O)C2CC2)nc2[nH]ccc12 [Example 4] .
Marked response: 1.07

Exam item: Return Total related material for the following compound: C[C@@H]1CN(C(=O)CC#N)CC=C1c1cc(NC(=O)C2CC2)nc2[nH]ccc12 [Example 3]
Marked response: 0.41

Exam item: Determine from records and report Total related material for C[C@@H]1CN(C(=O)CC#N)CC=C1c1cc(NC(=O)C2CC2)nc2[nH]ccc12 [Example 1]
Marked response: 0.62

* * *

Assay Remarks: Hygroscopicity evaluation
Type: physicochemical
Experimental Setup: relative humidity 33%, 4 W; in %
Could you please report measured Individual related material for the items listed next?
No unit in the answer, please; the number alone is enough.

Exam item: Return value of Individual related material for input C[C@@H]1CN(C(=O)CC#N)CC=C1c1cc(NC(=O)C2CC2)nc2[nH]ccc12 [Example 4] , no commentary.
Marked response: 0.14

Exam item: For C[C@@H]1CN(C(=O)CC#N)CC=C1c1cc(NC(=O)C2CC2)nc2[nH]ccc12 [Example 2] , write its Individual related material.
Marked response: 0.10

Exam item: Supply recorded Individual related material for C[C@@H]1CN(C(=O)CC#N)CC=C1c1cc(NC(=O)C2CC2)nc2[nH]ccc12 [Example 1] here.
Marked response: 0.11

Exam item: Recall and state the measured Individual related material for C[C@@H]1CN(C(=O)CC#N)CC=C1c1cc(NC(=O)C2CC2)nc2[nH]ccc12 [Example 3] .
Marked response: 0.08

* * *

Assay Remarks: Photostability evaluation
Type: physicochemical
Experimental Setup: Solid, UV (200 W-h/m2)
Record label 1 whenever Total related material is at 0.6% or higher; record label 0 when lower.

Exam item: In plain terms: is recorded Total related material at least 0.6% for C[C@@H]1CN(C(=O)CC#N)CC=C1c1cc(NC(=O)C2CC2)nc2[nH]ccc12 [Example 4] ?
Marked response: label 0

Exam item: Reported Total related material at or above 0.6%? C[C@@H]1CN(C(=O)CC#N)CC=C1c1cc(NC(=O)C2CC2)nc2[nH]ccc12 [Example 1]
Marked response: label 1

Exam item: Is Total related material at least 0.6%? Consider C[C@@H]1CN(C(=O)CC#N)CC=C1c1cc(NC(=O)C2CC2)nc2[nH]ccc12 [Example 3]
Marked response: label 0

Exam item: Decide: Total related material of C[C@@H]1CN(C(=O)CC#N)CC=C1c1cc(NC(=O)C2CC2)nc2[nH]ccc12 [Example 5] >= 0.6%?
Marked response: label 1

* * *

System: JAK1, 3
Assay Remarks: Human whole blood assay, JAK1, 3
Assay type: cell-based
Experimental Setup: cytokine-induced STAT phosphorylation
Assay Endpoint: IC50 (nM)
The answer is to be given in nM; state only the numeric part.

Exam item: Give IC50 for C[C@@H]1CN(C(=O)CC#N)CC=C1c1cc(NC(=O)C2CC2)nc2[nH]ccc12
Marked response: 544

* * *

Assay Remarks: Physical stability evaluation under stress conditions
Format: physicochemical
Experimental Setup: S4W: 4 weeks at 60° C./80% RH
Protocol: In order to evaluate physical stability, samples were packaged in the form of ((LPDE+N2)+silica gel 1 g+LDPE)+Al-Bag, and stored under stress conditions (60° C.±2° C./80% RH±5%) for 2/4 weeks before evaluation. In table 2, initial is a result measured after preparation of salts, and S2W and S4W are results measured after two and four weeks while being exposed to stress conditions, respectively.
Please provide measured Purity: Total related material for the entries that follow.
API: value field is a number in %; no unit string.

Exam item: Give Purity: Total related material for C[C@@H]1CN(C(=O)CC#N)CC=C1c1cc(NC(=O)C2CC2)nc2[nH]ccc12 [Example 4]
Marked response: 1.31

Exam item: Name the recorded Purity: Total related material of the compound listed here: C[C@@H]1CN(C(=O)CC#N)CC=C1c1cc(NC(=O)C2CC2)nc2[nH]ccc12 [Example 3]
Marked response: 0.53

Exam item: Indicate its recorded Purity: Total related material; the compound in question is C[C@@H]1CN(C(=O)CC#N)CC=C1c1cc(NC(=O)C2CC2)nc2[nH]ccc12 [Example 1]
Marked response: 1.28

Exam item: Name the recorded Purity: Total related material of the compound listed here: C[C@@H]1CN(C(=O)CC#N)CC=C1c1cc(NC(=O)C2CC2)nc2[nH]ccc12 [Example 2]
Marked response: 0.58
